Measured values drawn from patent US9266891B2 for this set.

# ASSAY_TARGET: BRD4-BD1 (Homo sapiens (Human), UniProt O60885)
# EXPERIMENTAL_PROTOCOL: BRD4-H4 tetraacetylated peptide inhibition AlphaScreen
# MEASUREMENT_CONTEXT: GST-BRD4-BD1 (aa 44-168) with biotinylated Acetyl-Histone H4 (Lys5, 8, 12, 16) peptide
PARAMETER: pIC50
Give only the number. pIC50 is defined as minus log10 of concentration in molar units.

COCCN1CCC(Nc2nc(-c3nc4ccccc4n3[C@@H](C)c3ccccc3)cn3c(C)nnc23)CC1 [III-2]: 7.39

Just so you know, measured pIC50 for Cc1nc(-c2cnn(C)c2Oc2ccccc2)cn2c(C)nnc12 [Example I-3] came out at 7.39
